# Test system: secretion of IL6 by OCI-LY3 ABC-DLBCL cells
# procedure_text: Human IL6 Mesoscale assay (OCI-LY3)
# Format: cell-based
# run_parameters: 24 h incubation, IL6 in supernatant
# Method: NFKB signaling regulates the secretion of multiple cytokines, including IL6 and IL10. Secretion of the cytokines IL6 and IL10 by OCI-LY3 ABC-DLBCL cells was measured using a mesoscale assay. Inhibition of NFKB signaling by MALT1 inhibitors results in a decrease of IL6/10 secretion. OCI-LY3 cells were propagated in RPMI-1640 (Sigma Aldrich) supplemented with 10% fetal bovine serum (HyClone), 1 mM sodium pyruvate (Invitrogen), 2 mM L-glutamine (Sigma Aldrich) and 1% PenStrep (Sigma Aldrich). […]
pIC50: −log10 of the molar value.
measurement_name: pIC50

COC(C)c1c(NC(=O)Nc2cnc(-n3nccn3)c(C(F)(F)F)c2)cnc(C(F)F)c1C#N (single isomer, unassigned) [Co. 128]; 6.34

a. CO[C@@H](C)c1c(NC(=O)Nc2cnc(-n3nccn3)c(Cl)c2)cnc(C)c1Cl [Co. 105]
b. CO[C@H](C)c1c(NC(=O)Nc2cnc(C3CC3)c(Cl)c2)cnc(C)c1Br [Co. 55]
Input line: Which is greater in pIC50, the first item a or the second item b ? # respond with the chosen item's label
Output line: a

----------
# full-length MALT1 protein (Strep-MALT1(1-824)-His) (Homo sapiens): IC50 values follow
measurement_name: IC50 (nM)

Worked examples, 5 compounds total:
CO[C@@H](C)c1c(O)cncc1NC(=O)Nc1cnc(-n2nccn2)c(Cl)c1; 2630
CO[C@@H](C)c1c(NC(=O)Nc2cnc(OC(F)F)c(Cl)c2)cnc(C)c1C#N; 50
CO[C@H](C)c1c(NC(=O)Nc2cnc(-n3nccn3)c(Cl)c2)cnc(N)c1Br; 20
COC(C)c1c(NC(=O)Nc2cnc(-n3nccn3)c(Cl)c2)cnc(C)c1Br (centres unmarked); 50
CO[C@H](c1c(NC(=O)Nc2cnc(-n3nccn3)c(C(F)(F)F)c2)cnc(C)c1C#N)C1CC1; 60

P. COC(C)c1c(O)cncc1NC(=O)Nc1cnc(-n2nccn2)c(Cl)c1 (centres unmarked)
Q. COC(C)c1c(NC(=O)Nc2cnc(-n3nccn3)c(Cl)c2)cncc1C(N)=O (racemic)
R. CO[C@H](C)c1c(NC(=O)Nc2ccnc(C(F)(F)F)c2)cnc(C)c1C#N (single isomer, unassigned)
Input line: Order the records so the highest IC50 appears first and the lowest last. Put the labels in the order asked and list them.
Output line: P, Q, R

1. CO[C@@H](C)c1c(NC(=O)Nc2cnc(-n3nccn3)c(C#N)c2)cnc(C)c1Br
2. COC(C)c1c(F)cncc1NC(=O)Nc1cnc(-n2nccn2)c(Cl)c1 (racemic)
3. COc1nc(-n2nccn2)c(Cl)cc1NC(=O)Nc1cnc(C)c(Br)c1[C@@H](C)OC
Input line: Put these in order: smallest IC50 first, largest last. Put the labels in the order asked and list them.
Output line: 3, 1, 2

A. CO[C@H](C)c1c(NC(=O)Nc2cnc(C3CC3)c(C(F)(F)F)c2)cnc(C)c1Cl
B. CO[C@H](C)c1c(NC(=O)Nc2cnc(-n3nccn3)c(C(F)(F)F)c2)cnc(C(F)F)c1Cl (single isomer, unassigned)
Input line: Between item A and item B , which reported IC50 is smaller? # respond with the chosen item's label
Output line: B

----------
# System: secretion of IL6 by OCI-LY3 ABC-DLBCL cells
# procedure_text: Human IL6 Mesoscale assay (OCI-LY3)
# Assay type: cell-based
# run_parameters: 24 h incubation, IL6 in supernatant
measurement_name: IC50 (nM)

Worked examples, 4 compounds total:
CCOC(=O)c1cncc(NC(=O)Nc2cnc(-n3nccn3)c(Cl)c2)c1[C@@H](C)OC; 220
CO[C@@H](C)c1c(NC(=O)Nc2cnc(-n3ncc([C@@H](C)O)n3)c(Cl)c2)cnc(C)c1C#N; 230
CO[C@H](C)c1c(NC(=O)Nc2cnc(-n3nccn3)c(Cl)c2)cncc1OC(C)C; 190
COc1ncc(NC(=O)Nc2cnc(C)c(Cl)c2[C@@H](C)OC)cc1C#N; 7590

a. CO[C@@H](C)c1c(Cl)cncc1NC(=O)Nc1cnc(-n2nccn2)c(Cl)c1
b. CO[C@@H](C)c1c(NC(=O)Nc2cnc(-n3nccn3)c(C(F)(F)F)c2)cnc(C)c1C#N
Input line: Which is greater in IC50, the first item a or the second item b ? # respond with the chosen item's label
Output line: a
(a: 5620 nM, b: 240 nM)

----------
# target: full-length MALT1 protein (Strep-MALT1(1-824)-His) (Homo sapiens)
# Sequence (Q9UDY8 1-824): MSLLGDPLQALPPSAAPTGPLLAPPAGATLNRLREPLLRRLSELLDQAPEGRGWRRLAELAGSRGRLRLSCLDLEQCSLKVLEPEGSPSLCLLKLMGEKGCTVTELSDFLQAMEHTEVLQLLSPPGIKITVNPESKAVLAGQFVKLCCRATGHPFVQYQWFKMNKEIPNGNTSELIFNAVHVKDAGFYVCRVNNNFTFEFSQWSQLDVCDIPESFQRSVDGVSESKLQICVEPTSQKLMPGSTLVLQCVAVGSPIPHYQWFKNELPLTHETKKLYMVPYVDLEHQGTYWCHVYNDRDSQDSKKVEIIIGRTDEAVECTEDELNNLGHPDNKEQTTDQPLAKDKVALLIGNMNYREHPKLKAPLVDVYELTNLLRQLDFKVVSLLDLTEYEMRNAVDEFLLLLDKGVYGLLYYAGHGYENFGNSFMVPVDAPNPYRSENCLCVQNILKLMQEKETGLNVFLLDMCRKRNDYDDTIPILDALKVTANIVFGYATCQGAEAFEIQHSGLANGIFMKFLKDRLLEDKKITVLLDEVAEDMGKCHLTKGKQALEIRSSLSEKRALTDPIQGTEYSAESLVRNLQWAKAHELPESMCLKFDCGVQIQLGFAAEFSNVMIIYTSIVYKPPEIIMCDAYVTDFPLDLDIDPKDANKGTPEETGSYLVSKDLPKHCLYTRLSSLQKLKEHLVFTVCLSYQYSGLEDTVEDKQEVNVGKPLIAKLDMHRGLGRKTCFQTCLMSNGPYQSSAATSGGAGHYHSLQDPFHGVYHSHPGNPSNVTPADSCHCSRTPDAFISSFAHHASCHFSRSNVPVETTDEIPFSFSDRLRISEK
measurement_name: IC50 (nM)

I. CO[C@@H](C)c1c(C#N)cncc1NC(=O)Nc1cnc(-n2nccn2)c(Cl)c1
II. CO[C@H](C)c1c(NC(=O)Nc2cnc(-n3nccn3)c(Cl)c2)cnc(C)c1Br
Input line: Between item I and item II , which reported IC50 is smaller? # respond with the chosen item's label
Output line: II

P. CO[C@@H](C)c1c(NC(=O)Nc2cnc(OC(F)F)c(Cl)c2)cnc(C)c1Cl
Q. COC(C)c1c(NC(=O)Nc2cnc(-n3nccn3)c(Cl)c2)cncc1C(C)C (racemic)
R. CO[C@@H](c1c(NC(=O)Nc2cnc(-n3nccn3)c(C(F)(F)F)c2)cnc(C)c1Cl)C1CC1 (single isomer, unassigned)
Input line: Put these in order: smallest IC50 first, largest last. Put the labels in the order asked and list them.
Output line: R, P, Q
(R: 50 nM, P: 80 nM, Q: 2140 nM)

a. CO[C@H](C)c1c(NC(=O)Nc2ccnc(C(F)(F)F)c2)cnc(C)c1Cl
b. CO[C@H](C)c1c(NC(=O)Nc2cnc(OC(F)F)c(Cl)c2)cnc(N)c1Cl (single isomer, unassigned)
Input line: Between item a and item b , which reported IC50 is smaller? # respond with the chosen item's label
Output line: b
(b: 60 nM, a: 170 nM)

----------
# full-length MALT1 protein (Strep-MALT1(1-824)-His) (Homo sapiens, UniProt Q9UDY8): IC50 values follow
measurement_name: IC50 (nM)

[2H]C([2H])([2H])Oc1cncc(NC(=O)Nc2cnc(-n3nccn3)c(C(F)(F)F)c2)c1[C@H](C)OC (single isomer, unassigned) [Co. 129]; 1380
CO[C@@H](C)c1c(NC(=O)Nc2cnc(-n3nccn3)c(C(F)(F)F)c2)cnc(C(F)F)c1Cl (single isomer, unassigned) [Co. 133]; 550
CO[C@@H](C)c1c(NC(=O)Nc2cnc(-n3nccn3)c(Cl)c2)cnc(N)c1Br [Co. 118]; 480
CO[C@H](C)c1c(NC(=O)Nc2cnc(-n3nccn3)c(C(F)(F)F)c2)cnc(C)c1Br [Co. 58]; 200
COC(C)c1c(Br)cncc1NC(=O)Nc1cnc(-n2nccn2)c(Cl)c1 (single isomer, unassigned) [Co. 18]; 100

a. CO[C@@H](C)c1c(NC(=O)Nc2cnc(-n3nccn3)c(Cl)c2)cnc(C)c1C#N [Co. 61]
b. COc1cncc(NC(=O)Nc2cnc(-n3nccn3)c(C(F)(F)F)c2)c1[C@@H](C)OC [Co. 124]
c. COC(C)c1c(Br)cnc(C)c1NC(=O)Nc1cnc(-n2nccn2)c(Cl)c1 (racemic) [Co. 50]
d. CCOC(=O)COc1cncc(NC(=O)Nc2cnc(-n3nccn3)c(Cl)c2)c1C(C)OC (racemic) [Co. 14]
Input line: Order the records so the highest IC50 appears first and the lowest last. Put the labels in the order asked and list them.
Output line: c, d, b, a
(c: 7410 nM, d: 3240 nM, b: 80 nM, a: 40 nM)

a. CO[C@H](C)c1c(NC(=O)Nc2cnc(C3CC3)c(Cl)c2)cnc(C)c1Br [Co. 55]
b. COC(C)c1c(NC(=O)Nc2cnc(-n3nccn3)c(C(F)(F)F)c2)cnc(C(F)F)c1C#N (single isomer, unassigned) [Co. 127]
Input line: Between item a and item b , which reported IC50 is smaller? # respond with the chosen item's label
Output line: b
(b: 30 nM, a: 110 nM)

1. COC(C)c1cc(C)ncc1NC(=O)Nc1cnc(-n2nccn2)c(Cl)c1 (racemic) [Co. 106]
2. CCOC(=O)c1cncc(NC(=O)Nc2cnc(-n3nccn3)c(Cl)c2)c1[C@@H](C)OC [Co. 36]
3. CO[C@H](C)c1c(NC(=O)Nc2cnc(-n3nccn3)c(C#N)c2)cnc(C)c1Br [Co. 91]
4. CO[C@@H](C)c1c(NC(=O)Nc2cnc(C3CC3)c(Cl)c2)cnc(C)c1Br [Co. 56]
Input line: Put these in order: smallest IC50 first, largest last. Put the labels in the order asked and list them.
Output line: 3, 2, 4, 1

Source listed as patent US12404260B2.
